- System: Staphylococcus sp.
- test-details: in vitro antibacterial evaluation, MIC by broth dilution
- Type: cell-based
- condition-description: broth dilution, 18 hours at 35° C.
- Excerpt: Methods for in vitro Antibacterial Evaluation (Table 1) […]
measure: MIC Coagulase Negative Staphylococcus (GC 4549) (µg/mL)
Please reply with the bare figure in µg/mL and do not write the unit itself.

Ask: Look up MIC Coagulase Negative Staphylococcus (GC 4549) for this molecule: CC=C(C)C(=O)OC1C(CO)OC(OC2C(CO)OC(Oc3ccc(CC4NC(=O)C(C(C)c5ccccc5)NC(=O)CNC(=O)C(CO)NC(=O)C(C(O)C5CNC(=N)N5C5OC(CO)C(O)C(O)C5O)NC(=O)C(C(O)C5CNC(=N)N5)NC4=O)cc3)C(O)C2O)C(O)C1O (centres unmarked) [Example 278b]
Result: 2

Ask: Look up MIC Coagulase Negative Staphylococcus (GC 4549) for this molecule: CC(C)CC(=O)OC1C(OC2C(CO)OC(Oc3ccc(CC4NC(=O)C(C(C)c5cccs5)NC(=O)CNC(=O)C(CO)NC(=O)C(C(O)C5CNC(=N)N5C5OC(CO)C(O)C(O)C5O)NC(=O)C(C(O)C5CNC(=N)N5)NC4=O)cc3)C(O)C2O)OC(CO)C(O)C1O (centres unmarked) [Example 265a]
Result: 4
